# EXPERIMENTAL SYSTEM: MAP kinase-interacting serine/threonine-protein kinase 1 (Homo sapiens, UniProt Q9BUB5)
# Sequence (Q9BUB5 whole entry): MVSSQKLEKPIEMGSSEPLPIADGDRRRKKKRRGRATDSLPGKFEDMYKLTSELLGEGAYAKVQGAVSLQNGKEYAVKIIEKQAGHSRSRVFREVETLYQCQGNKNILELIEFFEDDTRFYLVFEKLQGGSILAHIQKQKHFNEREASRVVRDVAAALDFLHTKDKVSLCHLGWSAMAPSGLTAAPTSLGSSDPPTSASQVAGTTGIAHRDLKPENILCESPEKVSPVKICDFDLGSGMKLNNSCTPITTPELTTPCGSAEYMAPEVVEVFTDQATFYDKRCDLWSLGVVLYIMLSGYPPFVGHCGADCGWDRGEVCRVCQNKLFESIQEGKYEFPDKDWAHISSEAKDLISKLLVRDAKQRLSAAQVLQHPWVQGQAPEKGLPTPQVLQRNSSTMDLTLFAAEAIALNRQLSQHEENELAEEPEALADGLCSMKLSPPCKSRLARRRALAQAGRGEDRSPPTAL
# TEST DESCRIPTION: Inhibition of GST-tagged MNK1 (unknown origin) expressed in Escherichia coli BL21(DE3) using 5-FAM-TATKSGSTTKNRFVV-NH 2 peptide as substrate incubated for 1 hr in presence of ATP by fluorescence polarization assay
ENDPOINT LABEL: pIC50
Would you please state pIC50, meaning minus log10 of the concentration in mol/L, as a bare number?

A selection of reference data follows.
MOLECULE	EXPERIMENTAL SYSTEM	RECORDED VALUE
CC(=O)NC[C@@H](C)Oc1ccc2ncc(-c3cc4ccc(O)cc4o3)n2n1	MAP kinase-interacting serine/threonine-protein kinase 1 (Homo sapiens, UniProt Q9BUB5)	7.40
CC(=O)C1CCCCc2cc(O)cc(O)c2C(=O)O[C@@H](C)C/C=C\C1=O (stereo partly drawn)	MAP kinase-interacting serine/threonine-protein kinase 1 (Homo sapiens, UniProt Q9BUB5)	5.05

Now look at this entry.
QUERY: Enter pIC50 (test system MAP kinase-interacting serine/threonine-protein kinase 1 (Homo sapiens, UniProt Q9BUB5)) for COc1cc(O)c2c(c1)CCC[C@H](O)[C@H](O)C(=O)/C=C\C[C@H](C)OC2=O
RESULT: 6.49
